# Tested on: Mtb H37Rv
# Method Notes: MIC broth microdilution assay against Mtb H37Rv (with and without clavulanate)
# Type: cell-based, Mycobacterium tuberculosis
# Test Context: Mtb H37Rv without clavulanate
Parameter: increase of MIC relative to T405

Requested read-out increase of MIC relative to T405, target or system Mtb H37Rv, entry `C[C@@H](O)[C@H]1C(=O)N2C(C(=O)O)=C(SC3CN(c4nc5ccccc5s4)C3)S[C@H]12` 16 fold

* * *

# System: Mab ATCC 19977
# Method Notes: MIC broth microdilution assay against Mab ATCC 19977
# Format: cell-based, Mycobacteroides abscessus
# Test Context: Mycobacteroides abscessus, ATCC19977; Middlebrook 7H9, 30° C., 72 h; read-out: MIC Mab ATCC 19977
Parameter: log10(MIC) (log10 of the value in µg/mL)
Please keep in mind that the values are log10 of MIC expressed in µg/mL.

log10(MIC) lookup needed for `C[C@@H](O)[C@H]1C(=O)N2C(C(=O)O)=C(SC3CN(c4nc5ccccc5s4)C3)S[C@H]12` , thanks. 1.81

What about `C[C@@H](O)[C@H]1C(=O)N2C(C(=O)O)=C(S[C@@H]3CCN(C4CCOCC4)C3)S[C@H]12` ? 0.60

What about `C[C@@H](O)[C@H]1C(=O)N2C(C(=O)O)=C(S[C@H]3CCNC3)S[C@H]12` ? 0.30

What about `C[C@@H](O)[C@H]1C(=O)N2C(C(=O)O)=C(SC3CN(C4CCOCC4)C3)S[C@H]12` ? 0.60

What about `C[C@@H](O)[C@H]1C(=O)N2C(C(=O)O)=C(SC3CN(c4nc5ccccc5n4C)C3)S[C@H]12` ? 1.81

What about `C[C@@H](O)[C@H]1C(=O)N2C(C(=O)O)=C(SCC3CCNCC3)S[C@H]12` ? 0.60

What about `C[C@@H](O)[C@H]1C(=O)N2C(C(=O)O)=C(S[C@@H]3CCNC3)S[C@H]12` ? 0.30

What about `C[C@@H](O)[C@H]1C(=O)N2C(C(=O)O)=C(SC3CN(C4=NCCCS4)C3)S[C@H]12` ? 1.20

What about `CCN1CC(SC2=C(C(=O)O)N3C(=O)[C@H]([C@@H](C)O)[C@H]3S2)C1` ? 0.60

What about `CCN1CC[C@@H](SC2=C(C(=O)O)N3C(=O)[C@H]([C@@H](C)O)[C@H]3S2)C1` ? 0.60

What about `C[C@@H](O)[C@H]1C(=O)N2C(C(=O)O)=C(SCC3CNC3)S[C@H]12` ? 0.90

What about C[C@@H](O)[C@H]1C(=O)N2C(C(=O)O)=C(SCCN=CN)C[C@H]12 [Imipenem, reference compound] ? 0.90
